Test system: COLO 205 colon
procedure-text: NCI tumour cell line growth inhibition, 48 h; in the data active = GI50 below about 0.43 µM; inactive = the rest
# output must be one of active, inactive

CC[C@H](C)[C@H](NC(=O)c1nccn1C)C(=O)N(C)[C@H](C[C@@H](OC(C)=O)c1nc(C(=O)N[C@@H](Cc2ccccc2)C[C@H](C)C(=O)OC)cs1)C(C)C ... inactive
O=C(Nc1cccc([N+](=O)[O-])c1)c1cc2ccccc2cc1O ... inactive
COc1ccc(S(=O)(=O)n2c3ccccc3n3ncc(-c4nnc(C)o4)c23)cc1 ... active
N=C1C(c2nc(-c3ccc(Br)cc3)cs2)=C(O)CN1CC1CCCO1 (stereo unspecified) ... inactive
N#C/C(=C\c1cccnc1)c1nc2ccccc2o1 ... inactive

Now consider a different molecule.
Prompt: Could you kindly confirm the outcome this assay logged for S=C(Nc1ccccc1)N1CCn2c1nsc2=Nc1ccccc1 ?
Response: inactive
